# study target: HLA-A*03:01
# protocol summary: IEDB peptide-MHC binding, purified MHC/competitive/radioactivity; filed as Kd, often an IC50 or EC50 that approximates it; bounds were set here for any values at or beyond the usual limits of such assays
# run conditions: source organism: Homo sapiens
reported metric: Kd (nM)
Give bare numbers, in nM.

Give HLA-A*03:01 Kd for the following sequence: KILDAVVAQE
847

---

# study target: HLA-A*02:16
# protocol summary: IEDB peptide-MHC binding, purified MHC/direct/fluorescence; filed as Kd, often an IC50 or EC50 that approximates it; bounds were set here for any values at or beyond the usual limits of such assays
# run conditions: source organism: Salmonella enterica subsp. enterica serovar Typhimurium
reported metric: Kd

Provide only the value of recorded Kd for WPVMQWLTA
≥ 20 µM

---

# study target: HLA-A*02:03
# protocol summary: IEDB peptide-MHC binding, purified MHC/competitive/radioactivity; filed as Kd, often an IC50 or EC50 that approximates it; bounds were set here for any values at or beyond the usual limits of such assays
# run conditions: source organism: Dengue virus 4 Philippines/H241/1956
reported metric: pKd
Numbers only, as −log10 of the molar value.

For orientation, consider the following solved cases.
| sequence entry | reported metric | meas value |
| --- | --- | --- |
| GLYPLAIPV | pKd | 9.38 |
| FLFFMQGKGI | pKd | 8.42 |
| ILNAHEDGV | pKd | 7.03 |
| LIASLVMLLV | pKd | 7.19 |

Alright, here's another sequence for you.
Provide only the value of recorded pKd for SLGLILLKMV
7.24

---

# study target: HLA-A*24:02
# protocol summary: IEDB peptide-MHC binding, purified MHC/competitive/fluorescence; bounds were set here for any values at or beyond the usual limits of such assays
# run conditions: source organism: Vaccinia virus WR
reported metric: pIC50
Answers are plain numbers, as −log10 of the molar value.

Record pIC50 per entry; entries follow.
1. RWLGGILPW
2. KRSVMLIGI

[7.95, 5.03]

---

# study target: HLA-B*44:02
# protocol summary: IEDB peptide-MHC binding, purified MHC/direct/fluorescence; filed as Kd, often an IC50 or EC50 that approximates it; bounds were set here for any values at or beyond the usual limits of such assays
# run conditions: source organism: Influenza A virus (A/camel/Mongolia/1982(H1N1))
pKd: −log10 of the molar value.
reported metric: pKd

Provide only the value of recorded pKd for HIPEVCLKW
≤ 4.70

---

# study target: HLA-A*11:01
# protocol summary: IEDB peptide-MHC binding, purified MHC/direct/fluorescence; filed as Kd, often an IC50 or EC50 that approximates it; bounds were set here for any values at or beyond the usual limits of such assays
# run conditions: source organism: Fowlpox virus
reported metric: pKd
One number for each entry, as −log10 of the molar value.

Provide only the value of recorded pKd for KMFTFWYMR
8.20

---

# study target: HLA-A*11:01
# protocol summary: IEDB peptide-MHC binding, purified MHC/competitive/radioactivity; filed as Kd, often an IC50 or EC50 that approximates it; bounds were set here for any values at or beyond the usual limits of such assays
# run conditions: source organism: Triticum aestivum
reported metric: pKd
Answers are plain numbers, as −log10 of the molar value.

Provide only the value of recorded pKd for AMCNVYIPPY
6.87

---

# study target: HLA-A*01:01
# protocol summary: IEDB peptide-MHC binding, purified MHC/direct/fluorescence; filed as Kd, often an IC50 or EC50 that approximates it; bounds were set here for any values at or beyond the usual limits of such assays
# run conditions: source organism: Shigella flexneri
reported metric: Kd (nM)
One number for each entry, in nM.

Provide only the value of recorded Kd for LSSIGIPAY
366
